Data origin: the supplement of paper PMC3334620

Tested on: Pdr3 (UniProt P33200)
Sequence: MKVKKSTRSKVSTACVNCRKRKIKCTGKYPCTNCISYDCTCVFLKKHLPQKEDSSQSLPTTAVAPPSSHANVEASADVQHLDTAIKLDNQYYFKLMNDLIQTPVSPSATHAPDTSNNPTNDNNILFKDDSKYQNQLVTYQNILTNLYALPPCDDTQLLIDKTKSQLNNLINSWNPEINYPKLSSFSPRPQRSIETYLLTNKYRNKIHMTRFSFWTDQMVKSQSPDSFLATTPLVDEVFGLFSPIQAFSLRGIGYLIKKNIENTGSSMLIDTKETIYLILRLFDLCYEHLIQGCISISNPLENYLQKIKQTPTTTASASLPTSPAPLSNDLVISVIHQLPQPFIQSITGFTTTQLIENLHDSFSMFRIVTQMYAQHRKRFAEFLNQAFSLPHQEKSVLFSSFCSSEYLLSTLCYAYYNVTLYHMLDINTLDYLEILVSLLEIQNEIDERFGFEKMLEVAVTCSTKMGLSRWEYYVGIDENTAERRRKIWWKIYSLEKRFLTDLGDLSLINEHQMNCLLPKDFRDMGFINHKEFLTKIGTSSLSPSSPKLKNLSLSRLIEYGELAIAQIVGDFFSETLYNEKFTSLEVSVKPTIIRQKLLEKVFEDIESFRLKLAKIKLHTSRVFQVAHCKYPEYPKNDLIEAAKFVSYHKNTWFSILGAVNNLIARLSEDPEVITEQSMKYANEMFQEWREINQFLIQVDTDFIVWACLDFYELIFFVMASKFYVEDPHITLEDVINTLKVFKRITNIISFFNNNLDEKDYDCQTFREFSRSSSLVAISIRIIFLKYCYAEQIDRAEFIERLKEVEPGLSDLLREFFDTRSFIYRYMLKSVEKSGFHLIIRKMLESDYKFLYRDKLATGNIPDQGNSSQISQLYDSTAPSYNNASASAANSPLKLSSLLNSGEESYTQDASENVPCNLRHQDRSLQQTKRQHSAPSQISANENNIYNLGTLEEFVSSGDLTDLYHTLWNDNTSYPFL
Assay comment: PBM E-score (8-mer binding enrichment) (E-score (-0.5 to 0.5)); higher = stronger / more preferred TF binding
Assay setup: protein concentration: 200 nM; construct: GST-full length
In all, about 33,000 sequences were measured (“E-score (-0.5 to 0.5)”: median about -0.035, highest 2% from about 0.35 on). The sample as a whole holds a higher share of the highest values than the screen did.
Provide the reported PBM E-score of each item.
Numbers only.

See these solved cases before continuing.
{"columns": ["Residues", "Measure name", "Numeric value"],
 "data": [
  ["CTCCCCGA", "PBM E-score", 0.053],
  ["CGGCGGAC", "PBM E-score", 0.289]
]}

Here are 6 sequences. What values of PBM E-score were reported for them?
1. CCCGAAAA
2. ATCCCAAA
3. CCCAGAGA
4. TGGCGAAA
5. CATGCCGA
6. ACCGGATG

Output:
1: 0.191; 2: 0.0137; 3: -0.223; 4: -0.0244; 5: 0.248; 6: 0.249

* * *

Tested on: Pdr3 (UniProt P33200)
Sequence: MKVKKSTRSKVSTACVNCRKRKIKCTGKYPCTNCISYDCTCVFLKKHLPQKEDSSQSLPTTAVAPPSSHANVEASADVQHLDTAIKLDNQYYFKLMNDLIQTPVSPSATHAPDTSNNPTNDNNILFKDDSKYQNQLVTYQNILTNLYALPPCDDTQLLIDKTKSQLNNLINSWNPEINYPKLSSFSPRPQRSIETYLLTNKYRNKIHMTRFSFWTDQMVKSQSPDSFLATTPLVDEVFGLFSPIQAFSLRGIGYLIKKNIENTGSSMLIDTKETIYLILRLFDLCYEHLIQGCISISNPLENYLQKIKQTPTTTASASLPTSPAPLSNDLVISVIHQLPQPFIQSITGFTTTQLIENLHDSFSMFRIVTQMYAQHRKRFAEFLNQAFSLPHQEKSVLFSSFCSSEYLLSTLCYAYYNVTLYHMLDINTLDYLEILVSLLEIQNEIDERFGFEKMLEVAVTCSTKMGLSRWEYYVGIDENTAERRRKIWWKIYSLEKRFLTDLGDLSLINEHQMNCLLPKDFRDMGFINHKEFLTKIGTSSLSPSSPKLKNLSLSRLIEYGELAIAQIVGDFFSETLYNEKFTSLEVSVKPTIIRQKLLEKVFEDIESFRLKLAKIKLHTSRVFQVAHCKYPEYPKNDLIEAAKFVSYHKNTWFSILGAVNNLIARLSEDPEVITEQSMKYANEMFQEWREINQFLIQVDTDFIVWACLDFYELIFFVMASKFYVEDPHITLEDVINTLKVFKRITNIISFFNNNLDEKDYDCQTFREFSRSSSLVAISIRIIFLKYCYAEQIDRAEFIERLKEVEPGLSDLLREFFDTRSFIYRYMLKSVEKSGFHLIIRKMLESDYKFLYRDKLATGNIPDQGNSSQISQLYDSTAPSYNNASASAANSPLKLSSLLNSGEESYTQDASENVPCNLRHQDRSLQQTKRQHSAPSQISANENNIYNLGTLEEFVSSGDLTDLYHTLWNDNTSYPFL
Assay comment: PBM E-score (8-mer binding enrichment) (E-score (-0.5 to 0.5)); higher = stronger / more preferred TF binding
Assay setup: protein concentration: 200 nM; construct: GST-full length
Over roughly 33,000 sequences, “E-score (-0.5 to 0.5)” has its median near -0.035; the highest 2% begin near 0.35. The list comes from a sample in which the highest values are over-represented; it also holds close analogues and randomly drawn sequences.
We use 0.2 as the dividing line for PBM E-score: on or above the line is rule met, below is rule not met.

Please review the following examples before continuing.
{"columns": ["Residues", "Tested on", "Classification"],
 "data": [
  ["CGTTCCTC", "Pdr3 (UniProt P33200)", "rule not met"],
  ["AGCCGGGG", "Pdr3 (UniProt P33200)", "rule not met"],
  ["AGCCGGTG", "Pdr3 (UniProt P33200)", "rule not met"],
  ["TAGGAACA", "Pdr3 (UniProt P33200)", "rule not met"],
  ["AGTTCCCA", "Pdr3 (UniProt P33200)", "rule not met"]
]}

Task: API: above_or_equal(metric=PBM E-score, cutoff=0.2) for item AGCCGGAG
Output: rule met

Task: API: above_or_equal(metric=PBM E-score, cutoff=0.2) for item CGCCGGAG
Output: rule met

Task: API: above_or_equal(metric=PBM E-score, cutoff=0.2) for item AGCCGTAT
Output: rule not met

Task: API: above_or_equal(metric=PBM E-score, cutoff=0.2) for item CAGGAACA
Output: rule not met

Task: API: above_or_equal(metric=PBM E-score, cutoff=0.2) for item AGATTCAT
Output: rule not met

Task: API: above_or_equal(metric=PBM E-score, cutoff=0.2) for item CATTCCGC
Output: rule met

Task: API: above_or_equal(metric=PBM E-score, cutoff=0.2) for item CCACGTGA
Output: rule not met

* * *

Tested on: Pdr3 (UniProt P33200)
Sequence: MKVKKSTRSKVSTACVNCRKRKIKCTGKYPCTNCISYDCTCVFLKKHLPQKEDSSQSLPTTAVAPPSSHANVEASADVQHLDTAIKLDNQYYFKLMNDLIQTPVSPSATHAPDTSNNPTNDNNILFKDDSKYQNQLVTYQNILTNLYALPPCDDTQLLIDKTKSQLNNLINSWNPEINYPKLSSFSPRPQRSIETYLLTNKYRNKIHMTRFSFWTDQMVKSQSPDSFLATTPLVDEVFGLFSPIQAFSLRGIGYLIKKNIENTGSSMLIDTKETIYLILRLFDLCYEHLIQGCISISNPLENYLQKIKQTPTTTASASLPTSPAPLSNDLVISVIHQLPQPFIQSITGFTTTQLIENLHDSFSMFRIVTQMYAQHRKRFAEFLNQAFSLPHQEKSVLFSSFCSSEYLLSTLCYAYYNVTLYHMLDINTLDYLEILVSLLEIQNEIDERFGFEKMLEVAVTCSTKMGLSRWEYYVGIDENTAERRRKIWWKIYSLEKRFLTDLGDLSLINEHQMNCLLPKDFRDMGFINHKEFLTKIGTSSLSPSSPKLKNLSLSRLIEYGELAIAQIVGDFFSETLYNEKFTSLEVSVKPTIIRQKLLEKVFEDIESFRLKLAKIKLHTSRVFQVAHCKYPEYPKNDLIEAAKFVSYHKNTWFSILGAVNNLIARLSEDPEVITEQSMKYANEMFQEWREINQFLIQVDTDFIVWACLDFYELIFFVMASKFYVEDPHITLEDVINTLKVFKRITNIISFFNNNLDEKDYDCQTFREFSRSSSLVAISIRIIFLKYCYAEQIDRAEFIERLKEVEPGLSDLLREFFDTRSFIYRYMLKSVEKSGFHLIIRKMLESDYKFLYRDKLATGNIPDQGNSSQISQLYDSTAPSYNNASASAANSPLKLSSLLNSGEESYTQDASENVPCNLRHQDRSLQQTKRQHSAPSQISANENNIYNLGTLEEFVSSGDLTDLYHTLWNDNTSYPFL
Assay comment: PBM E-score (8-mer binding enrichment) (E-score (-0.5 to 0.5)); higher = stronger / more preferred TF binding
Assay setup: protein concentration: 200 nM; construct: GST-full length
Whole data set: some 33,000 sequences, median “E-score (-0.5 to 0.5)” near -0.035, cut for the highest 2% near 0.35. Many of the other results were omitted from the sample, so the highest values are more common in it than they were.
We use 0.2 as the dividing line for PBM E-score: on or above the line is True, below is False.

{"columns": ["Residues", "Tested on", "Classification"],
 "data": [
  ["CCCCGGAC", "Pdr3 (UniProt P33200)", "True"],
  ["CAACGGAA", "Pdr3 (UniProt P33200)", "True"]
]}

Task: API: above_or_equal(metric=PBM E-score, cutoff=0.2) for item CAACGGAC
Output: True

Task: API: above_or_equal(metric=PBM E-score, cutoff=0.2) for item CCCCCGAA
Output: False

Task: API: above_or_equal(metric=PBM E-score, cutoff=0.2) for item AACCTTTG
Output: False

Task: API: above_or_equal(metric=PBM E-score, cutoff=0.2) for item AGCTAGTC
Output: False

Task: API: above_or_equal(metric=PBM E-score, cutoff=0.2) for item CAACGGAG
Output: True

Task: API: above_or_equal(metric=PBM E-score, cutoff=0.2) for item GAAAAGGA
Output: False
